molecular target: alpha-synuclein fibrils, P37840; test: SPR, captured mAb; details: remark: other sources report otherwise
measured-quantity: koff (s⁻¹)

>>> recorded_value("ACI-8033-19A2-Ab1 (antibody, V domains shown) VH: EVQLVESGGGLVQPKGSLKLSCAASGFSFNTYAMNWVRQAPGKGLEWVARIRSKSNNYATYYVDSVKDRFTISRDDSESMLYLQMNNLKTEDTALYYCVSESAYWGQGTLVTVSA VL: DVVMTQTPLSLPVSLGDQASISCRSSQSLVHSNGNTYLYWYLQKPGQSPKLLIYKVSNRLSGVPDRFSGSGSGTDFTLKISRVEAEDLGVYFCSQSTHVPFTFGSGTKLEIK")
0.000119
>>> recorded_value("ACI-7067-1111B12-Ab2 (antibody, V domains shown) VH: QVQLLQPGTALVMPGASVKLSCKASGYTFTTYWMHWVKQRPGQGLEWIGNINPINGGSNYNEKFKSKASLTVDKSSSTAYMQLSSLTSEDSAVYYCVIAMDYWGQGTSVTVSS VL: DIQMTQSPSSLSASLGERVSLTCRASQDIGISLNWFQQEPDGTIKRLIYATSSLDSGVPKRFSGNRSGSDYSLTISSLESEDFADYYCLQFASSPLTFGAGTKLELK")
0.00101
>>> recorded_value("ACI-8033-18C11-Ab1 (antibody, V domains shown) VH: QVQLQQPGAELVKPGASVKMSCKAAGYTFSSYWITWVRQRPGQGLDWIGDIYPGGGVTNYNEKFKTKATLTVDTSSSTAYMQLSSLTSEDSAVYYCATAQTTFAYWGQGTLVTVSA VL: DVLMTQTPLSLPVSLGDQASISCRSSQNIVHNNGNTYLEWYLQKPGQSPKLLIYKVSNRFSGVPDRFSGSGSGTDFTLKISRVEAEDLGVYYCFQGSHVPRTFGGGTKLEIK")
0.000251
>>> recorded_value("ACI-8033-1G10-Ab1 (antibody, V domains shown) VH: DVQLQESGPGLVKPSQTVFLTCTVTGISITTGNYRWSWIRQFPGNKLEWIGYIYYSGTITYNPSLTSRTTITRDTPKNQFFLEMNSLTAEDTATYYCARIYYGNAMDYWGQGTSVTVSS VL: DVVMTQTPLSLPVSLGDQASISCRSSQSLVHSNGNTYLHWYLQKPGQSPKLLIYKVSNRFSGVPDRFSGSGSGTDFTLKISRVEAEDLGVYFCSQSTHVPHTFGGGTKLEIK")
"6.54e-05"
>>> recorded_value("ACI-7089-4418F6-Ab1 (antibody, V domains shown) VH: QVQLQQSGAELARPGASVKVSCKASGYTFTSSGISWLKHRTGQGLEWIGDIYPRSGNTYYNEKFKDKATLTADKSSSTAYMELRSLTSEDSAVYFCSSGNYWGQGTTLTVSS VL: DIVITQDDLSNPVTSGESVSISCRSSKSLLYKDGKTYLNWFLQRPGQSPQLLIYLMSTRASGVSDRFSGSGSGTDFTLEISRVKAEDVGVYYCQQLLEYPLTFGAGTKLELK")
"1.14e-05"
>>> recorded_value("ACI-8033-5A12-Ab1 (antibody, V domains shown) VH: QVHLKQSGADLVRPGASVKLSCKASGYTFTDYYINWVKQRPGQGLEWIARIYPGSGNTYYNEKFKGRATLSAEKSSTTAYMQLSSLTSEDSAVYFCVVGYYGAWGQGTTLTVSS VL: DVVMTQTPLSLPVSLGDQASISCRSSQSLVHSNGKTHLHWYLQKPGQSPKLLIYKVSNRFSGVPDRFSGSGSGTDFTLKISRVEAEDLGVYFCSQSTHVPWTFGGGTKLEIK")
"4.37e-06"
>>> recorded_value("ACI-8033-17F5-Ab1 (antibody, V domains shown) VH: EVQLQQSGPELVKPGASVKISCKASGYTFTDYFMNWVKQSHGKSLEWIGDINPNIDVTNYNQKFKGKATLTVDKSSSTAYMELRSLTSEDSAVYYCARGRDYAMDFWGQGTSVTVSS VL: DIVMSQSPSSLAVSAGEKVTMSCKSSQSLLNSRTRKNYLAWYQQKPGQSPKLLIYWASTRESGVPDRFTGSGSGTDFTLTISSVQAEDLAVYYCKQSYDLWTFGGGTKLEIK")
0.00012
>>> recorded_value("ACI-8033-4F3-Ab1 (antibody, V domains shown) VH: EVQLQQSGPELVKPGASVKISCKASGYTFTDYYMNWVKQSHGKSLEWIGDINPNTGTNSYNQKFKGRASLTVDKFSSAAYMELRSLTSEDSAVYYCARTGYGDPISSYYYALDYWGQGTSVTVSS VL: DIVMSQSPSSLAVSAGEKVTMSCKSSQSLLNSRTRKNYLAWYQQKPGQSPKLLIYWASTRESGVPDRFTGSGSGTDFTLTISSVQAEDLAVYYCKQSYNLWTFGGGTKLEIK")
"2.24e-07"
>>> recorded_value("ACI-7079-2606A6-Ab2 (antibody, V domains shown) VH: QVQLQQSGPELVKPGASVKISCKASGFAFSSSWMNWVKQRPGKGLEWVGRIFPGDGDTNYDRKFKDKATLTADKSSSTAYMQLSSLTSEDSAVYFCARWTGGYDWFAYWGQGTLVTVSA VL: DIVLTQSPASLAVSLGQRATISCRASQSVSTSNYNYLHWYQQKPGQPPKLLITYASNLESGVPARFSGSGSGTDFTLNIHPVEEGDTATYYCQHSWEIPLTFGAGTKLELK")
0.000862
>>> recorded_value("ACI-7088-4317A4-Ab1 (antibody, V domains shown) VH: EVQLQQSGAELVRPGASVKLSCTASGFNIKDDYMHWVKQRPEQGLEWIGWIDPENGDTEYASKFQGKATMTADTSSNTAYLQLSSLTSEDTAVYYCKTWGTTQALFPYWGQGTLVTVSA VL: DIVMTQSQKFMYTSVGDRVSITCKASQNVGNAVGWYQQKAGQSPKLLIHSASNRYTGVPDRFTGTGSGTDFTLTINNMQSEDLADYFCQQYRSYPLTFGAGTKLELK")
0.000998
